- Tested on: mouse plasma stability, LC-MS/MS, 48 h
- TEST_DETAILS: Inhibitors of Cruzain: Mouse Plasma Stability Profiling
- CONDITION: at 2 µM; active compounds read high
PARAMETER: percent remaining (%)
Dear colleague, please return just the value in %, with no unit written.

(Q) Please look at this compound and report its percent remaining: Cc1ccc(OCCn2c(CCNC(=O)C3CCCCC3)nc3ccccc32)cc1
(A) 95

Reference for the values: PubChem BioAssay AID504760
